tested-target: canine CD3 on canine T cells (canine PBMC) (canine, UniProt P27597 22-202)
Sequence (P27597 22-202 limits assumed, chain 1 of 3): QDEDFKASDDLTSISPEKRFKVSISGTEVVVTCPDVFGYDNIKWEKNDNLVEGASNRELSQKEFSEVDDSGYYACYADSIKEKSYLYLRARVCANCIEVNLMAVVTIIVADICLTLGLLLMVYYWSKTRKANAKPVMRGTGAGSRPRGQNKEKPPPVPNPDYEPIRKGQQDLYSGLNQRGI
Sequence (chain, as listed by the source limits assumed, chain 2 of 3): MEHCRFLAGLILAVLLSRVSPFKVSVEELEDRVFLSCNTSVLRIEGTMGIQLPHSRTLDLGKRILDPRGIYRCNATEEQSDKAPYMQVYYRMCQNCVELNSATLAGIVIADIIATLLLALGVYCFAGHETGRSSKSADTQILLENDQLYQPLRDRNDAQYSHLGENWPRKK
Sequence (chain, as listed by the source limits assumed, chain 3 of 3): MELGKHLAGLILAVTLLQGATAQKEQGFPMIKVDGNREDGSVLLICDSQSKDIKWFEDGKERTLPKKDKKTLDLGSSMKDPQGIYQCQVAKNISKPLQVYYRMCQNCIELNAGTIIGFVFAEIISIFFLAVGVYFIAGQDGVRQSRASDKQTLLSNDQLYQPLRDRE
assay-notes: cell-based or functional assay

{"binder": "PMX183 (monospecific anti-canine CD3, canine IgG-B effector function deficient Fc) (antibody, V domains shown) VH: ELTLQESGPGLVKPSQTLSLTCVVSGGSVTNSYYWNWIRQRPGRELEWMGYWTGGTKYNPAFQGRISISADTAKNQFSLQLTSMTTEDTAVYYCARDRDRRVPHAYGYWGQGTLVTVSS VL: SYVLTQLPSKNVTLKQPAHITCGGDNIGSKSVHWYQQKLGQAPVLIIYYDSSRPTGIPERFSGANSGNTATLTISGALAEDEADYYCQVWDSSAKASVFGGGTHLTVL", "unit-info": "pg/mL", "IFNy Concentration pg/ml, Day 6, IS": 63.7}
{"binder": "PMX179 (monospecific anti-canine CD3, canine IgG-B effector function deficient Fc) (antibody, V domains shown) VH: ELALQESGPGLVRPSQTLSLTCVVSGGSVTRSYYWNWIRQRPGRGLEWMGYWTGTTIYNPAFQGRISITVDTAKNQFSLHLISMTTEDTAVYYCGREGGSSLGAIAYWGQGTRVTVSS VL: SYVLTQLPSKNVTLKQPAHITCGGDNIGSKSVHWYQQKLGQAPVLIIYYDSSRPTGIPERFSGANSGNTATLTISGALAEDEADYYCQVWDSSAKAAVFGGGTHLTVL", "unit-info": "pg/mL", "IFNy Concentration pg/ml, Day 6, IS": 43.4}
